All figures here come from patent US5759827A.

# Test system: COS-1 cells
# protocolText: Transfection efficiency in COS-1 cells with a beta-galactosidase encoding plasmid
# Type: cell-based
# conditions: formulated as in example 1 (DOPE liposomes added to compound/DNA); 0.2 μg DNA/well; 48 h after transfection
Square brackets hold non-standard residues; d marks the D form. Peptide text beside a SMILES is read from it. * marks the point of attachment. Palmitoyl = CCCCCCCCCCCCCCCC(=O)*; dDab = NCC[C@@H](N)C(=O)O; dDap = NC[C@@H](N)C(=O)O; Dab = NCC[C@H](N)C(=O)O; Dap = NC[C@H](N)C(=O)O; NHNH2 = NN*
parameter: Beta-galactosidase activity 0.2 μg DNA/well

Solved entries (count: 5):
CCCCCCCCCCCCCCCC(=O)N[C@@H](CCCCN)C(=O)N[C@@H](CCCCN)C(=O)NCc1ccccc1 ... 510 μunits of beta-galactosidase p
CCCCCCCCCCCCCCCC(=O)N[C@@H](CCCNC(=N)N)C(=O)N[C@@H](CCCNC(=N)N)C(=O)OCC (Palmitoyl-Arg-Arg-OEt) ... 0 μunits of beta-galactosidase p
CCCCCCCCCCCCCCCC(=O)NCC[C@@H](N)C(=O)N[C@@H](CCN)C(=O)NN [cpd A] (H-[dDab](Palmitoyl)-[Dab]-NHNH2) ... 5772 μunits of beta-galactosidase p
CCCCCCCCCCCCCCCC(=O)N[C@@H](CCN)C(=O)N[C@@H](CCN)C(=O)NN (Palmitoyl-[Dab]-[Dab]-NHNH2) ... 2742 μunits of beta-galactosidase p
CCCCCCCCCCCCCCCC(=O)NC[C@@H](N)C(=O)N[C@@H](CN)C(=O)OCC (H-[dDap](Palmitoyl)-[Dap]-OEt) ... 359 μunits of beta-galactosidase p

The reported COS-1 cells Beta-galactosidase activity 0.2 μg DNA/well of CCCCCCCCCCCCCCCC(=O)NCC[C@H](N)C(=O)N[C@@H](CCN)C(=O)N[C@@H](CCN)C(=O)N[C@@H](CCN)C(=O)NN (H-[Dab](Palmitoyl)[Dab][Dab][Dab]-NHNH2) is 1800 μunits of beta-galactosidase p

###

# Tested on: COS-1 cells
# protocolText: Transfection efficiency in COS-1 cells with a beta-galactosidase encoding plasmid
# Assay type: cell-based
# conditions: formulated as in example 1 (DOPE liposomes added to compound/DNA); 0.2 μg DNA/well; 48 h after transfection
Square brackets hold non-standard residues; d marks the D form. Peptide text beside a SMILES is read from it. * marks the point of attachment. Palmitoyl = CCCCCCCCCCCCCCCC(=O)*; dDab = NCC[C@@H](N)C(=O)O; Dab = NCC[C@H](N)C(=O)O; NHNH2 = NN*
Measured Beta-galactosidase activity 0.2 μg DNA/well of individual entries

The reported COS-1 cells Beta-galactosidase activity 0.2 μg DNA/well of CCCCCCCCCCCCCCCC(=O)NCC[C@H](N)C(=O)N[C@H](CCN)C(=O)N[C@H](CCN)C(=O)N[C@@H](CCN)C(=O)NN (H-[Dab](Palmitoyl)[dDab][dDab][Dab]-NHNH2) is 497 μunits of beta-galactosidase p

The reported COS-1 cells Beta-galactosidase activity 0.2 μg DNA/well of "CCCCCCCCCCCCCCCC(=O)N[C@@H](CCCN)C(=O)N[C@@H](CCCN)C(=O)OC" is 44 μunits of beta-galactosidase p
